ASSAY EXPLANATION: clinical
ASSAY SETUP: human, in vivo, iv
ASSAY READOUT: log10 of MRT (log10 of the value in h)

> print(dat)
                                    compound  assay.readout  value.measured
 1  O=C(O[C@H]1CN2CCC1CC2)N1CCc2ccccc2[C@@H]1c1ccccc1 [SOLIFENACIN]   log10 of MRT            1.81
 2  CC1COc2c(N3CCN(C)CC3)c(F)cc3c(=O)c(C(=O)O)cn1c23 (centres undefined) [OFLOXACIN]   log10 of MRT            1.04
 3  Cc1cnc(NC(=O)C2=C(O)c3ccccc3S(=O)(=O)N2C)s1 [MELOXICAM]   log10 of MRT            1.32
 4  CN[C@@H]1[C@@H](O)[C@@H](O[C@@H]2[C@@H](O)[C@H](O[C@H]3OC(CN)=CC[C@H]3N)[C@@H](N)C[C@H]2N)OC[C@]1(C)O [SISOMICIN]   log10 of MRT            0.51
 5  NC[C@H]1CC[C@H](C(=O)O)CC1 [TRANEXAMIC ACID]   log10 of MRT            0.41
 6  Cc1[nH]c(=O)c(C#N)cc1-c1ccncc1 [MILRINONE]   log10 of MRT           -0.17
 7  Cc1nc2c([nH]1)-c1ccccc1N(C(=O)c1ccc(NC(=O)c3ccccc3-c3ccccc3)cc1)CC2 [CONIVAPTAN]   log10 of MRT            0.62
 8  CC(=O)N(CC(O)CO)c1c(I)c(C(=O)NCC(O)CO)c(I)c(C(=O)NCC(O)CO)c1I (centres undefined) [IOHEXOL]   log10 of MRT            0.11
 9        NC12CC3CC(CC(C3)C1)C2 [AMANTADINE]   log10 of MRT            1.36
10  Cc1ccnc2c1NC(=O)c1cccnc1N2C1CC1 [NEVIRAPINE]   log10 of MRT            1.91
11  CCc1nn(CCCN2CCN(c3cccc(Cl)c3)CC2)c(=O)n1CCOc1ccccc1 [NEFAZODONE]   log10 of MRT            0.04
12  CC1=NS(=O)(=O)c2cc(Cl)ccc2N1 [DIAZOXIDE]   log10 of MRT            1.76
13  Oc1ccc2c3c1O[C@H]1[C@@H](O)CC[C@@]4(O)[C@@H](C2)N(CC2CCC2)CC[C@]314 [NALBUPHINE]   log10 of MRT            0.54
14  CC[C@@]1(O)C(=O)OCc2c1cc1n(c2=O)Cc2c-1nc1cc(F)c(C)c3c1c2[C@@H](N)CC3 [EXATECAN]   log10 of MRT            0.88

====

ASSAY SETUP: human, in vivo, iv
ASSAY READOUT: t1/2 (h)

> print(dat)
                                   compound  assay.readout  value.unit  value.measured
1  N=C(N)c1ccc(OCCCCCOc2ccc(C(=N)N)cc2)cc1 [PENTAMIDINE]           t1/2           h              25
2  COC(=O)C(c1ccccc1)C1CCCCN1 (stereo not drawn) [METHYLPHENIDATE]           t1/2           h             4.8
3  COc1cccc2c1C(=O)c1c(O)c3c(c(O)c1C2=O)C[C@@](O)(C(=O)CO)C[C@@H]3O[C@H]1C[C@H](N)[C@@H](O)[C@H](C)O1 [EPIRUBICIN]           t1/2           h              36
